tgt: PTGER4 (EP4) (Homo sapiens (Human), UniProt P35408)
Sequence (P35408 whole entry): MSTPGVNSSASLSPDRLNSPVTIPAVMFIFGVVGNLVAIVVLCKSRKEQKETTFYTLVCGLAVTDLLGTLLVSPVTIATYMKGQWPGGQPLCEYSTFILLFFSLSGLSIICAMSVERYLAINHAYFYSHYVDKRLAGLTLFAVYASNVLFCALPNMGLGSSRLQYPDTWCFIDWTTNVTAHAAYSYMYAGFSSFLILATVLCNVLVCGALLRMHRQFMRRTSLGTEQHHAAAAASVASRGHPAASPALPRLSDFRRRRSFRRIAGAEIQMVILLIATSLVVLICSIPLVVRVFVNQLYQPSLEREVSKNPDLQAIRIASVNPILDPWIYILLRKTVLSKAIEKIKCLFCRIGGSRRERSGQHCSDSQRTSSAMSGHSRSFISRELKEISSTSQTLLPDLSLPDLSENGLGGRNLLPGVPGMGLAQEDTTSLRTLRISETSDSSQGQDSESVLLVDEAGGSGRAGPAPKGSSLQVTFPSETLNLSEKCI
protocol: cell-based
Record form. Attribute: IC50. Fill in for each entry.
A number alone suffices; assume nM.

Need IC50 of CCOc1cc(-c2cc(NCCc3ccc4[nH]ccc4c3)ncn2)sc1-c1noc(=O)[nH]1 [Example 339] , thanks.
10

What do we get for CCc1cc(-c2cc(NCCc3c(OC)cc4ccccc4c3C)ncn2)ccc1CC(=O)O [Example 445] ?
38

What do we get for CCOc1cc(-c2cc(NCCc3cc4ccoc4cc3F)ncn2)sc1C(=O)O [Ex 13] ?
9

What do we get for CCOc1cc(-c2cc(NCCc3ccc4sccc4c3)ncn2)cc(F)c1CC(=O)O [Example 370] ?
105

What do we get for O=C(O)c1ccc(-c2cc(NCCc3cc(F)c4sccc4c3)ncn2)cc1F [Example 554] ?
884

What do we get for CC(C)Oc1cc(-c2cc(NCCc3cc(F)c4sccc4c3)ncn2)ccc1C(=O)O [Example 491] ?
148

What do we get for CC(C)Oc1cc(-c2cc(NCCc3ccc4sccc4c3F)ncn2)ccc1CC(=O)O [Example 424] ?
80

What do we get for COc1cc2occc2c(C)c1CCNc1cc(-c2ccc(C(=O)O)c(OC3CCC3)c2)ncn1 [Ex 208] ?
130

----------
tgt: PTGER2 (EP2) (Homo sapiens (Human), UniProt P43116)
Sequence (P43116 whole entry): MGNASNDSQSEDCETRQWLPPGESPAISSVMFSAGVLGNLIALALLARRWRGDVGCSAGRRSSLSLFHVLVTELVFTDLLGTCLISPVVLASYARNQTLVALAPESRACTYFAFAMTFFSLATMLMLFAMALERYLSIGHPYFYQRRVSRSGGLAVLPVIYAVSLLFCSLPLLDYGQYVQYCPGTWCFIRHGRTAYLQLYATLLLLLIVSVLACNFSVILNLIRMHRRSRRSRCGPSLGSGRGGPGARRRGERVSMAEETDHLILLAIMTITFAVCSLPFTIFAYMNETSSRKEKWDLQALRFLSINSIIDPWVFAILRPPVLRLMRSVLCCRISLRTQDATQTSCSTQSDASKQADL
protocol: hEP2 b-arrestin assay (PathHunter HEK 293 PTGER2 b-arrestin cells)
condition_parameters: antagonistic activity, beta-arrestin assay; read-out: hEP2 b-arr IC50
readout: IC50

Need IC50 of "CCOc1cc(-c2cc(NCCc3c(OC)cc4occc4c3C)ncn2)sc1C(=O)O" , thanks.
0.005 µM

What do we get for "CCCOc1cc(-c2cc(NCCc3cc4ccsc4cc3OC)ncn2)ccc1CC(=O)O" ?
0.066 µM

What do we get for "Cc1c(CCNc2cc(-c3ccc(C(=O)O)c(OC4CCC4)c3)ncn2)ccc2sccc12" ?
0.025 µM

What do we get for "O=c1c(O)c(-c2ccc(-c3cc(NCCc4cc(F)c5sccc5c4)ncn3)cc2)c1=O" ?
0.203 µM

What do we get for "CCOc1cc2c(cc1CCNc1cc(-c3ccc(CC(=O)O)c(OC(F)F)c3)ncn1)OCCO2" ?
0.045 µM

What do we get for "CCOc1cc(-c2cc(NCCc3c(OCC)cc4ccccc4c3C)ncn2)ccc1C(=O)O" ?
0.01 µM

What do we get for "COc1cc2c(cc1CCNc1cc(-c3ccc4cc(C(=O)O)oc4c3)ncn1)OCCO2" ?
0.122 µM

What do we get for "CSc1cc(-c2cc(NCCc3ccc4scc(C#N)c4c3)ncn2)ccc1C(=O)O" ?
0.255 µM

What do we get for "CCOc1cc(-c2cc(NCCc3ccc4ccsc4c3C)ncn2)sc1C(=O)O" ?
0.05 µM

What do we get for "CCOc1cc2c(cc1CCNc1cc(-c3ccc(C(=O)O)c(CC(C)C)c3)ncn1)OCCO2" ?
0.038 µM

What do we get for "O=C(O)Cc1ccc(-c2cc(NCCc3ccc4scc(Cl)c4c3)ncn2)cc1OC(F)(F)F" ?
0.18 µM

What do we get for "CCOc1cc(-c2cc(NCCc3cc4c(cc3OC(F)F)OCO4)ncn2)ccc1C(=O)O" ?
0.441 µM

What do we get for CCOc1cc(-c2cc(NCCc3cc4c(cc3OC)OCCO4)ncn2)ccc1OC(C)C(=O)O (stereo not shown) ?
0.083 µM

What do we get for "COc1cc2c(cc1CCNc1cc(-c3ccc4c(C(=O)O)coc4c3)ncn1)OCCO2" ?
0.177 µM

What do we get for "COc1cc2occc2cc1CCNc1cc(-c2ccc(C(=O)O)c(OC3CCC3)c2)ncn1" ?
0.035 µM

What do we get for "Cc1c(CCNc2cc(-c3ccc(C(=O)O)c(OC4CCC4)c3)ncn2)ccc2ccsc12" ?
0.207 µM

What do we get for "CCOc1cc(-c2cc(NCCc3ccc4ccccc4c3C)ncn2)ccc1NCC(=O)O" ?
0.118 µM

What do we get for "CC(C)Oc1cc(-c2cc(NCCc3ccc4sccc4c3F)ncn2)ccc1C(=O)O" ?
0.204 µM

What do we get for "COc1cc(-c2cc(NCCc3cc(F)c4sccc4c3)ncn2)ccc1C(=O)O" ?
0.449 µM

What do we get for "CCOc1cc(-c2cc(NCCc3cc4c(cc3OC)OCO4)ncn2)ccc1OCC(=O)O" ?
0.134 µM

What do we get for "CCOc1cc2c(cc1CCNc1cc(-c3ccc(CC(=O)O)c(OCC)c3)ncn1)OCCO2" ?
0.076 µM

What do we get for "Cc1cc(-c2cc(NCCc3cc(F)c4sccc4c3)ncn2)cc(Cl)c1CC(=O)O" ?
0.98 µM

What do we get for "COc1cc2c(cc1CCNc1cc(-c3ccc4c(C(=O)O)c[nH]c4c3)ncn1)OCCO2" ?
0.438 µM

What do we get for "COc1cc2sccc2cc1CCNc1cc(-c2ccc(CC(=O)O)c(OC)c2)ncn1" ?
0.051 µM

What do we get for "CSc1cc(-c2cc(NCCc3ccc4sccc4c3)ncn2)ccc1C(=O)O" ?
0.082 µM

What do we get for "CCOc1cc(-c2cc(NCCc3c(F)c(F)c4cc(C)oc4c3OC)ncn2)sc1C(=O)O" ?
0.844 µM

What do we get for "CCCc1cc(-c2cc(NCCc3cc(F)c4sccc4c3)ncn2)ccc1CC(=O)O" ?
0.264 µM

What do we get for "CCOc1cc(-c2cc(NCCc3cc(Cl)c4sccc4c3)ncn2)ccc1C(=O)O" ?
0.538 µM

What do we get for "COc1cc2ccccc2c(F)c1CCNc1cc(-c2ccc(C(=O)O)c(SC)c2)ncn1" ?
0.053 µM

What do we get for "CCOc1cc(-c2cc(NCCc3c(F)c(F)c4cc(C)oc4c3OC)ncn2)ccc1C(=O)O" ?
1.59 µM

What do we get for "CCOc1cc(-c2cc(NCCc3ccc4sccc4c3F)ncn2)ccc1CC(=O)O" ?
0.221 µM

What do we get for "CSc1cc(-c2cc(NCCc3c(F)cc4ccccc4c3F)ncn2)ccc1C(=O)O" ?
0.225 µM

What do we get for "CCOc1cc(-c2cc(NCCc3ccc4scc(C#N)c4c3)ncn2)ccc1CC(=O)O" ?
0.832 µM

What do we get for "CCOc1c(C(=O)O)ccc(-c2cc(NCCc3cc(F)c4sccc4c3)ncn2)c1F" ?
0.577 µM
